- test method notes: self-splicing fitness, log relative to wild type (ln ratio); higher = more splicing; Tetrahymena group I intron in knt gene, E. coli kanamycin selection, DiMSum; sequences stand for … in CUCUCU…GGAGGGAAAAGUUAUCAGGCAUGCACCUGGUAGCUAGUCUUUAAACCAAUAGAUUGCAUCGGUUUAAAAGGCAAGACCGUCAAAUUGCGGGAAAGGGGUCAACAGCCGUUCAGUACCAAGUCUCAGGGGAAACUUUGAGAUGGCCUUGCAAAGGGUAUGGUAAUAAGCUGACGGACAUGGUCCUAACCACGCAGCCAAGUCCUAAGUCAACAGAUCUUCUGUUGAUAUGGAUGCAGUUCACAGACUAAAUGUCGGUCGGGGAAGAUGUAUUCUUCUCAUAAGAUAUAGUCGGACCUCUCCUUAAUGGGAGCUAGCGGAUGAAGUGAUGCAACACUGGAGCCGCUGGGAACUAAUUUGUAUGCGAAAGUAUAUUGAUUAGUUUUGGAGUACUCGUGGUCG;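 also: selection with 25 µg/mL kanamycin versus none on LB agar overnight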
- condition set: 37 °C
Field: self-splicing fitness (ln). Provide a value for each of the sequences that follow.

Known results for sequences:
>>> print(df.to_string())
         residue_string             recorded_metric     val
0  GUGCAGCAAUAUUACGACGG  self-splicing fitness (ln)   -2.73
1  GCUCAGCAAUAUUACGCAAA  self-splicing fitness (ln)  -0.688
2  AAUGAGCAAUAUUACGGUAG  self-splicing fitness (ln)   -3.47
3  CCUAAGCAAUAUUACGUUAA  self-splicing fitness (ln)   -2.49
4  UUACAGCAAUAUUACGUCGA  self-splicing fitness (ln)  0.0863

Each sequence below has a reported value. Please supply its self-splicing fitness (ln).
1. CUAUAGCAAUAUUACGUGCA
2. GAUCAGCAAUAUUACGUUCG
3. GUGGAGCAAUAUUACGACGU
4. AUGUAGCAAUAUUACGUCGG

Reply:
[-2.37, 0.136, 0.0174, -2.18]

Each sequence below has a reported value. Please supply its self-splicing fitness (ln).
1. CCCCAGCAAUAUUACGGCAG
2. UAUAAGCAAUAUUACGUGAU
3. UGGAAGCAAUAUUACGAUCC
4. CAGCAGCAAUAUUACGUGUA
5. UCUCAGCAAUAUUACGUAAC

Reply:
[-2.22, -1.45, -2.1, -1.65, -2.2]

src = the supplement of paper PMC7877785
